# Tested on: oat, wild (wild oat, Avena fatua)
# protocol notes: Test D controlled growth environment herbicide test, pre- and postemergence
# Format: in vivo
# test settings: Postemergence, 250 g ai/ha; scale 0 to 100 (0 no effect, 100 complete control)
reported endpoint: Plant response rating, Oat, Wild

>>> df
                              sample_smiles                 reported_endpoint  experimental_result
0  CCc1sc2c(C)cc(C)cc2c1-c1c(O)c(C)nn(C)c1=O  Plant response rating, Oat, Wild                   85
1  Cc1ccc2ccccc2c1-c1c(OC(=O)OC(C)C)c(C)nn(C)c1=O  Plant response rating, Oat, Wild                   98
2    Cc1nn(C)c(=O)c(-c2cccc3ccc(Br)cc23)c1O  Plant response rating, Oat, Wild                   90
3       Cn1nc(Br)c(O)c(-c2cccc3ccccc23)c1=O  Plant response rating, Oat, Wild                   75
4  Cc1nn(C)c(=O)c(-c2c(C)sc3ccc(Br)cc23)c1O  Plant response rating, Oat, Wild                  100
5      Cc1ccc2ccccc2c1-c1c(O)c(Br)nn(C)c1=O  Plant response rating, Oat, Wild                   95
6    CCc1sc2ccc(C)cc2c1-c1c(O)c(C)nn(C)c1=O  Plant response rating, Oat, Wild                   40

###

Plant response rating, Ragweed values, listed per item
# Tested on: ragweed (common ragweed, Ambrosia elatior)
# protocol notes: Test A greenhouse herbicide test, pre- and postemergence
# Format: in vivo
# test settings: Postemergence, 500 g ai/ha; visual rating after approx. 10 d, 0 to 100 scale (0 no effect, 100 complete control)
reported endpoint: Plant response rating, Ragweed

>>> print(df.to_string())
                                    molecule  experimental_result
 0  CCC(=O)Oc1c(OC)nn(C)c(=O)c1-c1c(C)sc2ccc(Cl)cc12 [Compound 131]                   90
 1  Cc1nn(C)c(=O)c(-c2c([N+](=O)[O-])ccc3ccccc23)c1O [Compound 165]                   90
 2  Cc1ccc2ccc(Cl)cc2c1-c1c(O)c(C)nn(C)c1=O [Compound 144]                  100
 3  COc1nn(C)c(=O)c(-c2c(C)sc3ccc(Cl)cc23)c1OC(C)=O [Compound 122]                   60
 4  CCC(=O)Oc1c(Br)nn(C)c(=O)c1-c1c(C)ccc2ccccc12 [Compound 156]                  100
 5  CC(=O)Oc1c(C)nn(C)c(=O)c1-c1c(C)sc2ccc(Cl)cc12 [Compound 108]                  100
 6  CCC(=O)Oc1c(C)nn(C)c(=O)c1-c1ccc(F)c2ccccc12 [Compound 113]                  100
 7  Cc1ccc2ccccc2c1-c1c(O)c(C(F)(F)F)nn(C)c1=O [Compound 102]                  100
 8  COC(=O)Oc1c(C)nn(C)c(=O)c1-c1c(C(F)(F)F)ccc2ccccc12 [Compound 149]                   90
 9  CCc1nn(C)c(=O)c(-c2c(C)oc3ccc(C)cc23)c1O [Compound 118]                    0
10  Cc1ccc2ccccc2c1-c1c(OS(C)(=O)=O)cnn(C)c1=O [Compound 142]                   20

###

# System: foxtail, giant (giant foxtail, Setaria faberii)
# protocol notes: Test C greenhouse herbicide test, pre- and postemergence
# Format: in vivo
# test settings: Postemergence, 31 g ai/ha; 0 to 100 scale (0 no effect, 100 complete control)
Foxtail, Giant plant response rating values, listed per item
reported endpoint: Foxtail, Giant plant response rating

>>> print(df.to_string())
                                   compound                     reported_endpoint  experimental_result
0  Cc1cc(C)c2sc(C)c(-c3c(O)c(C)nn(C)c3=O)c2c1 [Compound 2]  Foxtail, Giant plant response rating                   20
1  Cc1nn(C)c(=O)c(-c2ccc(F)c3ccccc23)c1O [Compound 41]  Foxtail, Giant plant response rating                   15
2  Cc1ccc2sc(C)c(-c3c(OC(=O)OC(C)C)c(C)nn(C)c3=O)c2c1 [Compound 66]  Foxtail, Giant plant response rating                   40
3  CCc1sc2ccc(C)cc2c1-c1c(O)c(C)nn(C)c1=O [Compound 47]  Foxtail, Giant plant response rating                   50
4  Cc1nn(C)c(=O)c(-c2c(C)sc3ccc(Br)cc23)c1O [Compound 22]  Foxtail, Giant plant response rating                   10
5  CCc1oc2ccc(C)cc2c1-c1c(O)c(C)nn(C)c1=O [Compound 10]  Foxtail, Giant plant response rating                   70
6  CCc1sc2c(C)cc(C)cc2c1-c1c(O)c(C)nn(C)c1=O [Compound 57]  Foxtail, Giant plant response rating                   70
7  Cc1nn(C)c(=O)c(-c2c(C)sc3c(C)cc(Cl)cc23)c1O [Compound 35]  Foxtail, Giant plant response rating                   50

###

Plant response rating, Bromegrass, Downy values, listed per item
# Test system: bromegrass, downy (downy bromegrass, Bromus tectorum)
# protocol notes: Test D controlled growth environment herbicide test, pre- and postemergence
# Format: in vivo
# test settings: Postemergence, 250 g ai/ha; scale 0 to 100 (0 no effect, 100 complete control)
# Source text: […]
reported endpoint: Plant response rating, Bromegrass, Downy

                              sample_smiles  experimental_result
0  Cc1ccc2sc(Br)c(-c3c(O)c(C)nn(C)c3=O)c2c1                   20
1    Cc1cc(C)c2ccccc2c1-c1c(O)c(C)nn(C)c1=O                   80
2  Cc1ccc2ccccc2c1-c1c(OC(=O)OC(C)C)c(C)nn(C)c1=O                   75
3        Cc1nn(C)c(=O)c(-c2cccc3ccccc23)c1O                   50
4    Cc1nn(C)c(=O)c(-c2cccc3ccc(Br)cc23)c1O                   25
5  COC(=O)Oc1c(C)nn(C)c(=O)c1-c1c(C)sc2ccc(C)cc12                   75

###

# Tested on: arrowleaf sida (Sida rhombifolia)
# protocol notes: Test E greenhouse herbicide test, pre- and postemergence
# Format: in vivo
# test settings: 125 g ai/ha, Postemergence; scale 0 to 100 (0 no effect, 100 complete control)
# Text: […]
Rule: Plant response rating, Arrowleaf Sida below 70 gives MET, anything at or above gives NOT MET.

>>> print(df.to_string())
                                   molecule  class_name
0  Cc1nn(C)c(=O)c(-c2cccc3ccc(Br)cc23)c1O [Compound 126]     NOT MET
1  Cc1cc(C)c2sc(C)c(-c3c(O)c(C)nn(C)c3=O)c2c1 [Compound 2]         MET
2  Cc1ccc2sc(Br)c(-c3c(O)c(C)nn(C)c3=O)c2c1 [Compound 79]         MET
3  Cc1ccc2ccccc2c1-c1c(OC(=O)OC(C)C)c(C)nn(C)c1=O [Compound 72]     NOT MET

###

# Test system: crabgrass, large (large crabgrass, Digitaria sanguinalis)
# protocol notes: Test C greenhouse herbicide test, pre- and postemergence
# Type: in vivo
# test settings: Preemergence, 62 g ai/ha; scale 0 to 100, 0 is no effect, 100 is complete control
reported endpoint: Plant response rating, Crabgrass, Large

In [3]: df
Out[3]:
                                   molecule  experimental_result
0  COC(=O)Oc1c(C)nn(C)c(=O)c1-c1c(C)sc2ccc(C)cc12 [Compound 80]                   15
1  CCC(=O)Oc1c(C)nn(C)c(=O)c1-c1ccc(Br)c2ccccc12 [Compound 134]                   30
2  Cc1ccc2ccccc2c1-c1c(O)c(I)nn(C)c1=O [Compound 29]                    5
3  Cc1ccc2ccccc2c1-c1c(O)c(C(F)(F)F)nn(C)c1=O [Compound 102]                    5
4  COC(=O)Oc1c(OC)nn(C)c(=O)c1-c1c(C)ccc2ccccc12 [Compound 136]                    5
5  CC(=O)Oc1c(C)nn(C)c(=O)c1-c1c(C)cc(C)c2ccccc12 [Compound 99]                   35
6  CCC(=O)Oc1c(OC)nn(C)c(=O)c1-c1c(C)sc2ccc(Cl)cc12 [Compound 131]                   20
7  CC(=O)Oc1c(Cl)nn(C)c(=O)c1-c1c(C)sc2ccc(Cl)cc12 [Compound 116]                   20
8  Cc1nn(C)c(=O)c(-c2ccc(Cl)c3ccccc23)c1O [Compound 139]                   30

All figures here come from patent US10597388B2.
